assay: in vitro; settings: rat, plasma
Description: Metabolic stability in rat plasma assessed as parent compound remaining after 120 mins

compound string | remaining at 2 h
CN(c1ncnc2[nH]ccc12)[C@@H]1CCN(C(=O)CC#N)C1 | > 100%

###

Recorded remaining at 0.5 h for the following compounds
assay: in vitro; conditions: dog, microsomes
Description: Metabolic stability in dog liver microsomes assessed as parent compound remaining after 30 mins
value type: remaining at 0.5 h (%)

compound string | readout number
CN(c1ncnc2[nH]ccc12)[C@@H]1CCN(S(=O)(=O)c2cccc([N+](=O)[O-])c2)C1 | 10.4
CN(c1ncnc2[nH]ccc12)[C@@H]1CCN(C(=O)CC#N)C1 | 92.8
CN(c1ncnc2[nH]ccc12)[C@@H]1CCN(S(=O)(=O)c2ccc(C(F)(F)F)cc2)C1 | 14.2
CN(c1ncnc2[nH]ccc12)[C@@H]1CCN(S(=O)(=O)c2cccc(C#N)c2)C1 | 31.6

###

assay: in vivo; settings: beagle, dog, po, 5 mg/kg
Description: MRT in Beagle dog at 5 mg/kg, po by LC-MS/MS analysis
value type: MRT (h)

compound string | readout number
CN(c1ncnc2[nH]ccc12)[C@@H]1CCN(C(=O)CC#N)C1 | 3.1

###

test: in vivo; settings: beagle, dog, po, 5 mg/kg
Description: AUC (0 to infinity) in Beagle dog at 5 mg/kg, po by LC-MS/MS analysis

compound string | readout unit | AUC(0-inf)
CN(c1ncnc2[nH]ccc12)[C@@H]1CCN(C(=O)CC#N)C1 | ng·h/mL | 6500

###

biological target: Voltage-gated inwardly rectifying potassium channel KCNH2 (Homo sapiens)
Sequence (Q12809 whole entry): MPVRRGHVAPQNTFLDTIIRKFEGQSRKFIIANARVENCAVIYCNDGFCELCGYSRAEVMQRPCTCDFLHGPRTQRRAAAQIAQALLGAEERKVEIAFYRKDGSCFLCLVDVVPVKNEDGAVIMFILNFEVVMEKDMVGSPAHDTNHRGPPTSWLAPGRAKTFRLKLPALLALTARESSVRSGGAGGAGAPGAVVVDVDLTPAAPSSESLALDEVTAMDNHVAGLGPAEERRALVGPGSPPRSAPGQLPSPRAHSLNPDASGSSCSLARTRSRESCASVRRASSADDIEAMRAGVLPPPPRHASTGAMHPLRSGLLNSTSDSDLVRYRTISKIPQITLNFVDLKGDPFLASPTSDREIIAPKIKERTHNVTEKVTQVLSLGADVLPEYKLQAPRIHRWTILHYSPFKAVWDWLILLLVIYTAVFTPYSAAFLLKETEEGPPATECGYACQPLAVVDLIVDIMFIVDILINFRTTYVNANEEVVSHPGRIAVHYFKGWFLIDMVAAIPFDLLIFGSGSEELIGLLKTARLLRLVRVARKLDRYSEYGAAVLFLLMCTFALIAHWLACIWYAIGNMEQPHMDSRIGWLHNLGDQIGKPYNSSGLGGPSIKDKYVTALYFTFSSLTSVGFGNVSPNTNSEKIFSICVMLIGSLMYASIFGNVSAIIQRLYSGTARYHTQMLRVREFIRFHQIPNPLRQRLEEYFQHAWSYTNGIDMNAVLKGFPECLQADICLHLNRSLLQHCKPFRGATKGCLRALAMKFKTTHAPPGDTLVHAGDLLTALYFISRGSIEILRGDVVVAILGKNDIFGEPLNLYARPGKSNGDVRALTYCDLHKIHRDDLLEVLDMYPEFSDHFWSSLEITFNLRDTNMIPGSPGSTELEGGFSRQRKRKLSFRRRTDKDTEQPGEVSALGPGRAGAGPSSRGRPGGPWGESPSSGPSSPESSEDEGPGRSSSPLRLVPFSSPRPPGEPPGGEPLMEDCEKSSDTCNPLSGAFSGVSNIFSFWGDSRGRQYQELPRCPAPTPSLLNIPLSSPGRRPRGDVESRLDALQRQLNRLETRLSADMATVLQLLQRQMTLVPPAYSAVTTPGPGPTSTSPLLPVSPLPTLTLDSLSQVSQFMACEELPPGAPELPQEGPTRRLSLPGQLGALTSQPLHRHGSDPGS
pIC50: −log10 of the molar value.

compound string | tested on | pIC50
CN(c1ncnc2[nH]ccc12)[C@@H]1CCN(C(=O)CC#N)C1 | Voltage-gated inwardly rectifying potassium channel KCNH2 (Homo sapiens) | 4.03

###

assay: in vivo; details: Sprague-Dawley, rat, iv, 5 mg/kg
Description: AUC (0 to t) in Sprague-Dawley rat at 5 mg/kg, iv by LC-MS/MS analysis
value type: AUC(0-t)

compound string | value type | result
CN(c1ncnc2[nH]ccc12)[C@@H]1CCN(C(=O)CC#N)C1 | AUC(0-t) | 930 ng·h/mL

###

assay: in vitro; conditions: human, Caco-2

compound string | Papp A→B (×10⁻⁶ cm/s)
CN(c1ncnc2[nH]ccc12)[C@@H]1CCN(C(=O)CC#N)C1 | 3.8

###

test: in vitro; conditions: human, plasma
Description: Metabolic stability in human plasma assessed as parent compound remaining after 120 mins
value type: remaining at 2 h (%)

compound string | value type | readout number
CN(c1ncnc2[nH]ccc12)[C@@H]1CCN(C(=O)CC#N)C1 | remaining at 2 h | 99.8

###

target: Tyrosine-protein kinase JAK2 (Homo sapiens, UniProt O60674); assay type: ADME
Sequence (O60674 whole entry): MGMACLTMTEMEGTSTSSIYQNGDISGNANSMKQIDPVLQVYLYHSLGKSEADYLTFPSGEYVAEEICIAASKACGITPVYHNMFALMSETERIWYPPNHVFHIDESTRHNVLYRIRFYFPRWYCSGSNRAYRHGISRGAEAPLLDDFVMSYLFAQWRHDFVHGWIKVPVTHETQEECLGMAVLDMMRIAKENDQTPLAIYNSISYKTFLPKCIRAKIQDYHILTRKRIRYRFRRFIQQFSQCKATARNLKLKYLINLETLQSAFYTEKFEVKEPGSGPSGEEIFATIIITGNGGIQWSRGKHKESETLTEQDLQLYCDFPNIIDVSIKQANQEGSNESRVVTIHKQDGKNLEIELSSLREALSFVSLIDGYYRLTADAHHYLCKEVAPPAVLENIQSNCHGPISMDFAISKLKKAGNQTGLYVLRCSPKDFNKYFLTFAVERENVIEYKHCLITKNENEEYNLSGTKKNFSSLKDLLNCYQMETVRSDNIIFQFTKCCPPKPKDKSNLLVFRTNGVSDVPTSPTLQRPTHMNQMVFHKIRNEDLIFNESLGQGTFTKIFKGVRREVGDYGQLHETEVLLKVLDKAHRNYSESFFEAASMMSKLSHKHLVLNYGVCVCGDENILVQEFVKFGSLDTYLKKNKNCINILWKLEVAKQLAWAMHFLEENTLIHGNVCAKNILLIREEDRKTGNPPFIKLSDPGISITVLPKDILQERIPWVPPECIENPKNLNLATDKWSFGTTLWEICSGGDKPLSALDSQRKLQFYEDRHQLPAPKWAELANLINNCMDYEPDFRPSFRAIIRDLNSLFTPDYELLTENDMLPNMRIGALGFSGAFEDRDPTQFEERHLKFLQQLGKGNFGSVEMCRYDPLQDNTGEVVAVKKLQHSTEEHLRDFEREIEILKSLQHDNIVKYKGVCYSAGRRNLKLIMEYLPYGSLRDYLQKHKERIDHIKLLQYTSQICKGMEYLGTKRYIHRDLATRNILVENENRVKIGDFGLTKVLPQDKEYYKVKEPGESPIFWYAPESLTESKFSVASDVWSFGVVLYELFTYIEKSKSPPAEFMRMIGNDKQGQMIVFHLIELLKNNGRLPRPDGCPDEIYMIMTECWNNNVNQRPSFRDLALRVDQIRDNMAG
Description: Inhibition of recombinant human JAK2 (808-end residues) in presence of ATP
pIC50: −log10 of the molar value.

compound string | tested on | pIC50
CCS(=O)(=O)N1CC[C@@H](N(C)c2ncnc3[nH]ccc23)C1 | Tyrosine-protein kinase JAK2 (Homo sapiens, UniProt O60674) | 5.62
N#Cc1cccc(S(=O)(=O)N2CC[C@@H](Nc3ncnc4[nH]ccc34)C2)c1 | Tyrosine-protein kinase JAK2 (Homo sapiens, UniProt O60674) | 5.72
CN(c1ncnc2[nH]ccc12)[C@H]1CN(C(=O)CC#N)CC12CCC2 | Tyrosine-protein kinase JAK2 (Homo sapiens, UniProt O60674) | 6.35
CN(c1ncnc2[nH]ccc12)[C@@H]1CCN(S(=O)(=O)c2ccccc2)C1 | Tyrosine-protein kinase JAK2 (Homo sapiens, UniProt O60674) | 6.37
N#CCC(=O)N1CC[C@@H](N(CC2CC2)c2ncnc3[nH]ccc23)C1 | Tyrosine-protein kinase JAK2 (Homo sapiens, UniProt O60674) | 5.77
CN(c1ncnc2[nH]ccc12)[C@@H]1CCN(CCC#N)C1 | Tyrosine-protein kinase JAK2 (Homo sapiens, UniProt O60674) | 5.72
CN(c1ncnc2[nH]ccc12)[C@@H]1CCN(S(=O)(=O)N2CCCCC2)C1 | Tyrosine-protein kinase JAK2 (Homo sapiens, UniProt O60674) | 5.41
CN(c1ncnc2[nH]ccc12)[C@@H]1CCN(S(=O)(=O)c2cccc([N+](=O)[O-])c2)C1 | Tyrosine-protein kinase JAK2 (Homo sapiens, UniProt O60674) | 7.74
CN(c1ncnc2[nH]ccc12)[C@@H]1CCN(S(=O)(=O)c2ccc3ccccc3c2)C1 | Tyrosine-protein kinase JAK2 (Homo sapiens, UniProt O60674) | 6.16
CC(C)CC(=O)N1CC[C@@H](N(C)c2ncnc3[nH]ccc23)C1 | Tyrosine-protein kinase JAK2 (Homo sapiens, UniProt O60674) | 5.41
CN(c1ncnc2[nH]ccc12)[C@@H]1CCN(S(=O)(=O)c2cccc(F)c2)C1 | Tyrosine-protein kinase JAK2 (Homo sapiens, UniProt O60674) | 7.28
CN(c1ncnc2[nH]ccc12)[C@@H]1CCN(C(=O)Nc2ccccc2)C1 | Tyrosine-protein kinase JAK2 (Homo sapiens, UniProt O60674) | 6.26
CN(c1ncnc2[nH]ccc12)[C@@H]1CCN(S(=O)(=O)c2cn(C)cn2)C1 | Tyrosine-protein kinase JAK2 (Homo sapiens, UniProt O60674) | 4.72
CN(c1ncnc2[nH]ccc12)[C@@H]1CCN(S(=O)(=O)c2ccc(F)cc2)C1 | Tyrosine-protein kinase JAK2 (Homo sapiens, UniProt O60674) | 6.96
CC(C)COC(=O)N1CC[C@@H](N(C)c2ncnc3[nH]ccc23)C1 | Tyrosine-protein kinase JAK2 (Homo sapiens, UniProt O60674) | 5.37
COc1ccc(S(=O)(=O)N2CC[C@@H](N(C)c3ncnc4[nH]ccc34)C2)cc1 | Tyrosine-protein kinase JAK2 (Homo sapiens, UniProt O60674) | 5.82
